System under test: T1, human GLP-1 receptor (human, UniProt P43220 24-463)
T1 construct: whole, on cells; also called the receptor; hGLP-1
Protocol details: SPA, displacement of 125I-GLP-1(7-36)NH2, BHK membranes, 0.001% HSA
*1 amine or outer side, *2 acyl side, *3 side chain or, on linkers, in order; H or OH if unused. Where no end group is shown, it is not given here. Side-chain parts run from the residue outwards. [ ]: non-standard residue; d: D form. The star is where a group is joined. Undecanoyl(11-OPh(4-COOH)) = O=C(O)c1ccc(OCCCCCCCCCCC(=O)*)cc1; Decanoyl(10-(4-HOOC-PhO)) = O=C(O)c1ccc(OCCCCCCCCCC(=O)*)cc1; γGlu = O=C(O)[C@H](CCC(=O)[*:2])N[*:1]; εLys = N[C@@H](CCCCN[*:1])C(=O)[*:2]; 13‑carboxytridecanoyl = C14 diacid; AEEA = NCCOCCOCC(=O)O; Aib = CC(C)(N)C(=O)O
Quantity name: pIC50
Conceptually, pIC50 converts a concentration in mol/L into minus its log10.

{"Binder": "H[Aib]EGTFTSDVSK([εLys-Ser-Ser-Ser-Ser-Ser-Ser-γGlu-Undecanoyl(11-OPh(4-COOH))])YLEGQAAK([εLys-Ser-Ser-Ser-Ser-Ser-Ser-γGlu-Undecanoyl(11-OPh(4-COOH))])EFIAWLVQGRG", "Number": 9.38}
{"Binder": "HAEGTFTSDVSK([Gly-Ser-Ser-Gly-Ser-Ser-γGlu-Decanoyl(10-(4-HOOC-PhO))])YLEEQAAK([Gly-Ser-Ser-Gly-Ser-Ser-γGlu-Decanoyl(10-(4-HOOC-PhO))])EFIAWLVQGRG", "Number": 8.79}
{"Binder": "H[Aib]EGTFTSDVSK([Ser-Ser-Ser-Ser-Ser-Ser-γGlu-Undecanoyl(11-OPh(4-COOH))])YLEGQAAK([Ser-Ser-Ser-Ser-Ser-Ser-γGlu-Undecanoyl(11-OPh(4-COOH))])EFIAWLVQGRG", "Number": 9.27}
{"Binder": "HXEGTFTSDVSSYLEGQAAKEFIAWLVRGRK (Aib at 8; eps-amino of Lys26 and Lys37 each acylated with 12-(4-carboxyphenoxy)dodecanoyl-gGlu-Ser-Ser-Gly-Ser-Ser-Gly-eps-Lys)", "Number": 9.57}
{"Binder": "HAEGTFTSDVSSYLEGQAAK([Gly-Ser-Ser-Gly-Ser-Ser-γGlu-Decanoyl(10-(4-HOOC-PhO))])EFIAWLVRGRK([Gly-Ser-Ser-Gly-Ser-Ser-γGlu-Decanoyl(10-(4-HOOC-PhO))])E", "Number": 9.24}
{"Binder": "H[Aib]EGTFTSDVSK([AEEA-AEEA-γGlu-13‑carboxytridecanoyl])YLEGQAAK([AEEA-AEEA-γGlu-13‑carboxytridecanoyl])EFIAWLVQGRG [Comparative compound of Example 22a: Compound of Example 141, Chem. 189, in WO 2012/062803]", "Number": 7.32}

Q: # query: pIC50 of entry `H[Aib]EGTFTSDVSK([εLys-Gly-Ser-Ser-Gly-Ser-Ser-γGlu-Undecanoyl(11-OPh(4-COOH))])YLEGQAAK([εLys-Gly-Ser-Ser-Gly-Ser-Ser-γGlu-Undecanoyl(11-OPh(4-COOH))])EFIAWLVQGRG`
Ans: 9.32

Q: Next entry: XXEGTFTSDVSSYLEGQAAKEFIAWLVRGRK (Imp (imidazopropionyl, des-amino histidine) at 7; Aib at 8; eps-amino of Lys26 and Lys37 each acylated with 12-(4-carboxyphenoxy)dodecanoyl-gGlu-Ser-Ser-Gly-Ser-Ser-Gly)
Ans: 9.28
